- System: ΔF508-CFTR (Homo sapiens, UniProt P13569, DEL508-508)
- Construct: expressed in transfected cells
- Sequence (P13569 with tags, fused parts or gaps DEL508-508): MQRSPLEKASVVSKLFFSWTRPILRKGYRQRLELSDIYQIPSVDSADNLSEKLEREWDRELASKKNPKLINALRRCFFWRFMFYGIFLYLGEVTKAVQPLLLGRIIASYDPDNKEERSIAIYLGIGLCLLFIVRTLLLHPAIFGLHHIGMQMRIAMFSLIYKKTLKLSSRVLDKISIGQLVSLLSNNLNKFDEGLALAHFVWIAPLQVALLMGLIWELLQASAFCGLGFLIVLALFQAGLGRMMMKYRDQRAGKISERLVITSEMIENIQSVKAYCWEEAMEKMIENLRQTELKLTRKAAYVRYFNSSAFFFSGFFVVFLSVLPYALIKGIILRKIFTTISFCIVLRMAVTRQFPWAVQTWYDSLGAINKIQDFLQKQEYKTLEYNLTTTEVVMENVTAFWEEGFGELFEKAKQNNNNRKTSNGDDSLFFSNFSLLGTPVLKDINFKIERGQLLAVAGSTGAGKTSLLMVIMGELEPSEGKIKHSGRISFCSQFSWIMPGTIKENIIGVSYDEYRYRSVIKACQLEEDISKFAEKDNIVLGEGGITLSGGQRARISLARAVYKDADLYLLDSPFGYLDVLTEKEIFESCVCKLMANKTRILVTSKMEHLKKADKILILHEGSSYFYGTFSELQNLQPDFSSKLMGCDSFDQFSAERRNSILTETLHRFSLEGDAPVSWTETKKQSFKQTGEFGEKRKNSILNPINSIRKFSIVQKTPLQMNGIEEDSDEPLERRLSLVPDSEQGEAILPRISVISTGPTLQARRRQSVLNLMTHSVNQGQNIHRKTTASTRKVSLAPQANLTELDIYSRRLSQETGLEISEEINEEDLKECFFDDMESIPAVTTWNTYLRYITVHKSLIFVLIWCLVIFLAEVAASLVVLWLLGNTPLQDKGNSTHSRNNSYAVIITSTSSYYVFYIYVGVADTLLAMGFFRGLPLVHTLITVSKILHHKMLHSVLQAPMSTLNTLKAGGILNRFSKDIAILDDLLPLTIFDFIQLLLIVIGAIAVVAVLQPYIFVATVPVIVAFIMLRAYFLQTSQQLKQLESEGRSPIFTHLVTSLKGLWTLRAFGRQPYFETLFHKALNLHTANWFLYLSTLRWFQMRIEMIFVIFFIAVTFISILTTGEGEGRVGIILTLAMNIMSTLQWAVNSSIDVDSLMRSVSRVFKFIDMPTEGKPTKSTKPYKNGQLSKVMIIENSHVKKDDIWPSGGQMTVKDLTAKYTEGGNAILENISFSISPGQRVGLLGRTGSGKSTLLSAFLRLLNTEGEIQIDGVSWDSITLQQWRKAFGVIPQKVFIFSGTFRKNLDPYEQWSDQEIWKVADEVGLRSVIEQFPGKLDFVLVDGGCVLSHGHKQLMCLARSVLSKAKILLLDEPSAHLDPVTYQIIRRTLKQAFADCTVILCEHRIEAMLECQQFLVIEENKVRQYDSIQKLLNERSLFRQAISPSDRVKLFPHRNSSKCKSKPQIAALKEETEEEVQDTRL
- Experimental Details: Membrane potential optical assay, identification of correction compounds (ΔF508-CFTR correction)
- Assay type: cell-based
- Conditions Used: PercentActivity; NIH3T3 mouse fibroblasts stably expressing ΔF508-CFTR; 16-24 hrs with compound; read-out: Binned Max Efficacy
- Description: Membrane potential optical methods for assaying ΔF508-CFTR modulation properties of compounds. The assay utilizes fluorescent voltage sensing dyes to measure changes in membrane potential using a fluorescent plate reader (e.g., FLIPR III, Molecular Devices, Inc.) as a readout for increase in functional ΔF508-CFTR in NIH 3T3 cells. […]
Overview of recorded Emax for various molecules

| Compound Structure | System | Emax |
| --- | --- | --- |
| CC(C)(C)c1cc2cc(NC(=O)C3(c4ccc5c(c4)OC(F)(F)O5)CC3)ncc2n1CCO | ΔF508-CFTR (Homo sapiens, UniProt P13569, DEL508-508) | > 100% |
| COc1cccc(C2(C(=O)Nc3ccc4[nH]c(C(C)(C)C)cc4n3)CC2)c1 | ΔF508-CFTR (Homo sapiens, UniProt P13569, DEL508-508) | 25 to 100% |

# ---- query molecule ----
Could you share which Emax value was measured for CC1(c2cc3cc(NC(=O)C4(c5ccc6c(c5)OC(F)(F)O6)CC4)ncc3[nH]2)CC1 ? > 100%
